target: T1, H4-15 histone H4 tail peptide
T1 chain: GRGKGGKGLGKGGAK
reported-endpoint: V/K (M⁻¹ s⁻¹)
Give bare numbers, in M⁻¹ s⁻¹.

[ask] Give reported V/K value for semi-synthetic p300 HAT domain D1628R (protein) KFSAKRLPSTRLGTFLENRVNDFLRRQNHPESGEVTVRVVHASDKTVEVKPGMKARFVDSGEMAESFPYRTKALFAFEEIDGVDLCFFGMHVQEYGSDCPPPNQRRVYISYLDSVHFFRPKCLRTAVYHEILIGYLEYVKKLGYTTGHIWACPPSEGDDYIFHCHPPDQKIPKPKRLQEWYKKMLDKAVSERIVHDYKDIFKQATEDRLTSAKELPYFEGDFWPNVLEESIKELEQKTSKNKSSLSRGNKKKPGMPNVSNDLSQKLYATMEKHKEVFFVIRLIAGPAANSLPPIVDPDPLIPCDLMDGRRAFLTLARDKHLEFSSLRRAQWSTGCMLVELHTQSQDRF
[reply] 2100
